Target: mouse SMO^WT (Mus musculus)
Construct: expressed in transfected cells
Sequence (P56726 33-793): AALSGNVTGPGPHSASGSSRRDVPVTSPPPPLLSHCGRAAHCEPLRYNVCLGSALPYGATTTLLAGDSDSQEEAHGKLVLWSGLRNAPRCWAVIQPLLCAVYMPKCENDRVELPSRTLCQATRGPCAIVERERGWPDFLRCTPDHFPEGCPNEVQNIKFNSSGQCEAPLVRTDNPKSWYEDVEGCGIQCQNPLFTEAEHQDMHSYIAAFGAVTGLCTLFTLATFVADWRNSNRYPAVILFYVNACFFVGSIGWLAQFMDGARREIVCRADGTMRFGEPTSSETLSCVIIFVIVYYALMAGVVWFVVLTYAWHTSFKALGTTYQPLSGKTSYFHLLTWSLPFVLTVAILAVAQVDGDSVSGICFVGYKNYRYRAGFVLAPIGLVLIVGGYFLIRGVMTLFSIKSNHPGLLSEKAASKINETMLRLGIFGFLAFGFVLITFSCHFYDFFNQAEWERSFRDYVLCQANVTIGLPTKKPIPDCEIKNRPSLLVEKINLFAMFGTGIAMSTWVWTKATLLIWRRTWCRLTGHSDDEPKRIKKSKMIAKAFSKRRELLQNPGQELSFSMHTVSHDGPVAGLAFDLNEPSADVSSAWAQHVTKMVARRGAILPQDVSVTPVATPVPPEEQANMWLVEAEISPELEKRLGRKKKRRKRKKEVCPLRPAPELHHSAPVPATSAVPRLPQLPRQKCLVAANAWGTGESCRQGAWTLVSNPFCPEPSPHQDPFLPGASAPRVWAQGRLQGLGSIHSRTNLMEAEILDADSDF
Experiment: Mouse assay: Gli1 qPCR in MEF cells stably expressing mouse SMO WT; also: test concentration or dose not given here
Type: cell-based
Settings: mSHh-treated, 24 hours, percentage Gli1 inhibition
Experimental: Cell culture. All materials were purchased from Sigma-Aldrich, unless otherwise stated. Compound treatment. […] Cell lysis and one-step qPCR. […] Real-time PCR amplification was detected using the Bio-Rad CFX384 Touch PCR system. […] Real-time data were analysed using the CFX Maestro software (Bio-Rad) and obtained expression values were converted to percentage Gli1 inhibition by normalising to the average Gli1 expression of mSHh-treated control samples.
METRIC NAME: Mouse WT % Inh (%)
Entry rule: numbers only, all in %.

{"columns": ["SMILES REPR", "MEASUREMENT UNIT", "Mouse WT % Inh"],
 "data": [
  ["CC(C)c1n[nH]c(-c2ccc(NC(=O)c3cccc(CN4CCS(=O)(=O)CC4)c3)cc2)n1.Cl", "%", 99.1],
  ["O=C(Nc1ccc(-c2nc(C3CC3)n[nH]2)cc1)c1ccc(Cl)c(CN2CCS(=O)(=O)CC2)c1", "%", 95.5],
  ["O=C(Nc1ccc(-c2cc(C3CC3)n[nH]2)cc1)c1cccc(CN2CCS(=O)(=O)CC2)c1", "%", 96.8],
  ["O=C(Nc1ccc(-c2nc(Cc3ccc(Cl)cc3)n[nH]2)cc1)c1cccc(CN2CCS(=O)(=O)CC2)c1", "%", 99.5],
  ["CC(C)c1noc(-c2ccc(NC(=O)c3cccc(CN4CCS(=O)(=O)CC4)c3)cc2)n1", "%", 97.8]
]}

Please tell me: Mouse WT % Inh of `O=C(Nc1ccc(-c2nc(Cc3ccccc3)n[nH]2)cc1)c1cccc(CN2CCS(=O)(=O)CC2)c1` , system mouse SMO^WT (Mus musculus)?
99.4

Please tell me: Mouse WT % Inh of `Cc1c(-c2ccc(NC(=O)c3cccc(CN4CCS(=O)(=O)CC4)c3)cc2)nn(C)c1C1CC1` , system mouse SMO^WT (Mus musculus)?
98.3

meta.source: patent US20250136559A1
